Origin of values: ChEMBL document CHEMBL1201862

Test system: MOLT-4
EXPERIMENT: NCI tumour cell line growth inhibition, 48 h
Active and inactive are the calls of the source. No stated cut-off is given here; in the data, active = GI50 up to about 1.1 µM and inactive = higher.
Your response should consist of one outcome taken from active, inactive

COMPOUND	QUALITATIVE LABEL
COc1ccc2nc(-c3ccc(N)cc3)sc2c1	inactive
COc1cc2c(cc1OCCCOc1cc3c(cc1OC)C(=O)N1CCC[C@H]1CN3)N=C[C@@H]1CCCN1C2=O	active
COc1cc(C(C)c2cc3c(cc2OCCN)OCO3)cc(OC)c1OC (stereo not given)	inactive

Request: // outcome(item) with item = "O=C1CCC2=C(CCC2)N1CCc1ccc2c(c1)OCO2"
Response: inactive

Request: // outcome(item) with item = CCOC(=O)N1c2ccccc2C(C)=CC(C)C1C (stereo not given)
Response: inactive

Request: // outcome(item) with item = COC(=O)C1=C(O)C(C(=O)OC)[C@]2(O)[C@H](C(=O)OC)[C@H]1C[C@@H](c1c(Cl)cccc1Cl)[C@H]2C(=O)OC (stereo not given in full)
Response: inactive

Request: // outcome(item) with item = "O=C1Nc2ccccc2/C1=N\c1cccc2ncccc12"
Response: inactive

Request: // outcome(item) with item = CCOC(=O)CCC(NC(=O)OCc1ccccc1)C(=O)NC(CCC(=O)OCC)C(=O)NC(CCC(=O)OCC)C(=O)NNC(=O)OC(C)(C)C (stereo not given)
Response: inactive

Request: // outcome(item) with item = C=CC1ON(C)CCc2cc(OC)c(OC)cc21 (stereo not given)
Response: inactive

Request: // outcome(item) with item = "CCCc1c2c3ccccc3nc-2nc2ccccn12"
Response: inactive
